Experiment: Single and repeat dose plasma and tissue pharmacokinetics in male C57BL/6 mice
Type: in vivo, mouse
Details: male, C57BL/6, mouse, brain, po, 20 mg/kg, mouse brain; QD × 1; value in parentheses marked * (reanalysis per footnote of Tables 8-9)
measured_metric: Cmax (ng/g)
All answers are understood in ng/g, so give the number only.

Indicate its recorded Cmax; the compound in question is CC(C)(CCCCc1ccc(CCCCC(C)(C)C(=O)O)cc1)C(=O)O [Compound I-1]
1020
